Hey, just so you know, these numbers are from patent US20180353462A1.

- assay-system: PASK (Homo sapiens)
- Construct: made in house
- Sequence (Q96RG2 whole entry): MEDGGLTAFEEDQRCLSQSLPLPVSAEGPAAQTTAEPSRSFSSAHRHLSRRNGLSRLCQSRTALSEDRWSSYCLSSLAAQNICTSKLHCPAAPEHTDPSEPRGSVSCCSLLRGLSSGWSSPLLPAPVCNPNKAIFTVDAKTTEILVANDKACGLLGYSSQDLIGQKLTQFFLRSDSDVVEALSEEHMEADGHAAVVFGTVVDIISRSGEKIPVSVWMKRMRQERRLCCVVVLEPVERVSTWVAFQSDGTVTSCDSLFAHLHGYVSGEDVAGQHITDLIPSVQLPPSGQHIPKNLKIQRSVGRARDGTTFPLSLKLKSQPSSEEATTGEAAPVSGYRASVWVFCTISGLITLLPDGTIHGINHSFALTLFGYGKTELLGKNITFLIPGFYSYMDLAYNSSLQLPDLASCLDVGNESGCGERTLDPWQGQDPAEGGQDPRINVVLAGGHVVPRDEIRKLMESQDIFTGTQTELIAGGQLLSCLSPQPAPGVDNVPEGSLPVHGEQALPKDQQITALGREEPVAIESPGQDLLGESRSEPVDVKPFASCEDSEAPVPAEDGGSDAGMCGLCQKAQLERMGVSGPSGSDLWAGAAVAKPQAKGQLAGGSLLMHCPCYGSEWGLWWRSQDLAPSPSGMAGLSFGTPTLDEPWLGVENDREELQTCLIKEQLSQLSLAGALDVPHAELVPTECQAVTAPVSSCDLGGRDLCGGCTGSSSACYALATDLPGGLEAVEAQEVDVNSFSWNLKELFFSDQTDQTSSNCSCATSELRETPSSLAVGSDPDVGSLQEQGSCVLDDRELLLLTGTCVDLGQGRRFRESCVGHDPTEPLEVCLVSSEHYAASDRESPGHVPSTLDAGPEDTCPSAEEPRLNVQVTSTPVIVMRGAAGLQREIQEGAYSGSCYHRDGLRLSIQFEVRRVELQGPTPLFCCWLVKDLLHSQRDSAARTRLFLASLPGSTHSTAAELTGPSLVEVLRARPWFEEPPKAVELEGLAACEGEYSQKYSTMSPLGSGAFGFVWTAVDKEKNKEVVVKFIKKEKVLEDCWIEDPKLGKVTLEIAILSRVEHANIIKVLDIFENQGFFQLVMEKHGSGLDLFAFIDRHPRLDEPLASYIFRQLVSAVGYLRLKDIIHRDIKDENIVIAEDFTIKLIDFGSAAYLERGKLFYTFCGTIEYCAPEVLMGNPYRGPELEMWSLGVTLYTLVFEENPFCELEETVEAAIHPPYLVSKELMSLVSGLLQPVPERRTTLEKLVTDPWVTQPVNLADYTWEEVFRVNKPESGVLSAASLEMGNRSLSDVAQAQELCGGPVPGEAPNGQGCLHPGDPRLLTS
- method: Kinase competition binding assay, PASK
- condition: Table 1 kinase panel
Readings of IC50 for the listed compounds
experimental-readout: IC50 (nM)

>>> recorded_measurement("COc1cc(-c2cc(=O)c3c(O)cc(O)c(CC=C(C)C)c3o2)ccc1O [FBL-03G]")
116
>>> recorded_measurement("COc1cc(-c2cc(=O)c3c(O)c(CC=C(C)C)c(O)cc3o2)ccc1O [FBL-03B]")
2060

----------
Readings of IC50 for the listed molecules
- assay-system: PIP5K1A (Homo sapiens)
- Construct: T7 phage fusion (most assays) or DNA tag for qPCR (HEK-293-made kinases); made in house
- Sequence (Q99755 whole entry, the tested form may be a part): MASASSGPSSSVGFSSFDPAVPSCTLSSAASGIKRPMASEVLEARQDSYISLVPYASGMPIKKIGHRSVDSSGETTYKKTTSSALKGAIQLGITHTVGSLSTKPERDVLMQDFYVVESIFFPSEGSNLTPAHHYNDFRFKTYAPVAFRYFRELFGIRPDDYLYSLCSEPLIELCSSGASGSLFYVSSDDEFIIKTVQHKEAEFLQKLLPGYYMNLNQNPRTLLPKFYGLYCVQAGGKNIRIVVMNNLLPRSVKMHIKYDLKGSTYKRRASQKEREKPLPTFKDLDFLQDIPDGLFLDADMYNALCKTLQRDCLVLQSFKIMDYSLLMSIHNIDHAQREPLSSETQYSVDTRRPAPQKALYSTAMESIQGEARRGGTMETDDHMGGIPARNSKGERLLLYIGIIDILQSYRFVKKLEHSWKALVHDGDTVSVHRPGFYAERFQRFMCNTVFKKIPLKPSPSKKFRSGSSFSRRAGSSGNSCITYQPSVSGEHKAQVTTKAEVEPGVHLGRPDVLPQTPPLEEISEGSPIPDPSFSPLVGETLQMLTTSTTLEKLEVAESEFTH
- method: Kinase competition binding assay, PIP5K1A
- condition: Table 1 kinase panel
experimental-readout: IC50

>>> recorded_measurement("COc1cc(-c2cc(=O)c3c(O)c(CC=C(C)C)c(O)cc3o2)ccc1O [FBL-03B]")
"> 10000 nM"
>>> recorded_measurement("COc1cc(-c2cc(=O)c3c(O)c(C/C=C(\\C)CCC=C(C)C)c(O)cc3o2)ccc1O [FBL-03A]")
"> 20000 nM"
>>> recorded_measurement("COc1ccc(-c2cc(=O)c3c(O)c(C/C=C(\\C)CCC=C(C)C)c(O)cc3o2)cc1OC [FBL-03D]")
"> 30000 nM"
>>> recorded_measurement("COc1cc(-c2cc(=O)c3c(O)cc(O)c(CC=C(C)C)c3o2)ccc1O [FBL-03G]")
"> 20000 nM"
>>> recorded_measurement("COc1cc(-c2cc(=O)c3c(O)cc(O)c(C/C=C(\\C)CCC=C(C)C)c3o2)ccc1O [FBL-03C]")
"360 nM"

----------
- assay-system: BRD4 (Homo sapiens, UniProt O60885)
- method: Inhibition of bromodomains, BRD4
- Type: binding
- condition: Table 3 Bromodomain
experimental-readout: IC50 (µM)

>>> recorded_measurement("COc1cc(-c2cc(=O)c3c(O)cc(O)c(CC=C(C)C)c3o2)ccc1O [FBL-03G]")
6.14
>>> recorded_measurement("COc1cc(-c2cc(=O)c3c(O)c(CC=C(C)C)c(O)cc3o2)ccc1O [FBL-03B]")
10.4

----------
- assay-system: CK2a (Homo sapiens, UniProt P68400)
- Construct: made in house
- Sequence (P68400 whole entry): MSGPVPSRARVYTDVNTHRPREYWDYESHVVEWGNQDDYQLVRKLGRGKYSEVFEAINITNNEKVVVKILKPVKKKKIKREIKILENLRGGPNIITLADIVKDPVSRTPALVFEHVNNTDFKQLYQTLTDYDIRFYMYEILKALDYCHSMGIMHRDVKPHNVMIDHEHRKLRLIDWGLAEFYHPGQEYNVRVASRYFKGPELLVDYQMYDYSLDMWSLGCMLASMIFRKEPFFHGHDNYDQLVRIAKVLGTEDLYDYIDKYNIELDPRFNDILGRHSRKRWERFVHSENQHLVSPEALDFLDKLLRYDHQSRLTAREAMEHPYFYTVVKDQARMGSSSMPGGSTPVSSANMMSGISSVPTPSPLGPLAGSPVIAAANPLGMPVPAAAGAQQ
- method: Kinase competition binding assay, CK2a
- condition: Table 1 kinase panel
experimental-readout: IC50 (nM)

>>> recorded_measurement("COc1cc(-c2cc(=O)c3c(O)c(C/C=C(\\C)CCC=C(C)C)c(O)cc3o2)ccc1O [FBL-03A]")
740
>>> recorded_measurement("COc1cc(-c2cc(=O)c3c(O)cc(O)c(CC=C(C)C)c3o2)ccc1O [FBL-03G]")
38
>>> recorded_measurement("COc1cc(-c2cc(=O)c3c(O)c(CC=C(C)C)c(O)cc3o2)ccc1O [FBL-03B]")
768
>>> recorded_measurement("COc1cc(-c2cc(=O)c3c(O)cc(O)c(C/C=C(\\C)CCC=C(C)C)c3o2)ccc1O [FBL-03C]")
58

----------
- assay-system: FLT3 (Homo sapiens, UniProt P36888)
- Construct: made in house
- Sequence (P36888 27-993): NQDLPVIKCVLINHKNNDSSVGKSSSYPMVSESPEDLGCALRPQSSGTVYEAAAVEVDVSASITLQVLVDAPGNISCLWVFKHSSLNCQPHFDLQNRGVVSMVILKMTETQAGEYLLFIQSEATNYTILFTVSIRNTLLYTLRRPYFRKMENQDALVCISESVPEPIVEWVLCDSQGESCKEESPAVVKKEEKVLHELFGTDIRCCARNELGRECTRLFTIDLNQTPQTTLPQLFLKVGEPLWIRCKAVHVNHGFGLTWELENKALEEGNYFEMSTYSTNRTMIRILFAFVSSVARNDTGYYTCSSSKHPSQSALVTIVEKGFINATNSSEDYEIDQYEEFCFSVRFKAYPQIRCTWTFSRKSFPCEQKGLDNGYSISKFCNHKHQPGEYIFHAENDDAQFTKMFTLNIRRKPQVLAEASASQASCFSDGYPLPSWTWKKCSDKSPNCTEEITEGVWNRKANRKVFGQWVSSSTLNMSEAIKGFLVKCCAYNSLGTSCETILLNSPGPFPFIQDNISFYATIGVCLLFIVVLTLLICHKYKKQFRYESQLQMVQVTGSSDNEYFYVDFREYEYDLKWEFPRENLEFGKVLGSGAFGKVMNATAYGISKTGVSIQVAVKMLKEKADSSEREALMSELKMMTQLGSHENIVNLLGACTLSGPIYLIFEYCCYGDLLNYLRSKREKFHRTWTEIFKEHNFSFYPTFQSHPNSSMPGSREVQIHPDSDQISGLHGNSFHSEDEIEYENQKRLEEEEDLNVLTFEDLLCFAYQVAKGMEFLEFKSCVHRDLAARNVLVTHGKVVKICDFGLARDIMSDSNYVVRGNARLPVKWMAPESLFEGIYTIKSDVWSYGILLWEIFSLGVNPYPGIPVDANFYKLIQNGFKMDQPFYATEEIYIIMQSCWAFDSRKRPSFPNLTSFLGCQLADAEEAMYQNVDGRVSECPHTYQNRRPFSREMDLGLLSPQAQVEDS
- Type: binding
- condition: Table 4; read-out: Acute Myeloid Leukemia Kinases FLT3 IC50
- Description: Cannabis flavonoids and their analogs were subjected to kinase inhibition assay. The compounds were first screened at a single concentration of 10 μM in the primary assay. […] See also, Karaman et al., “A Quantitative Analysis Of Kinase Inhibitor Selectivity”, Nat. […] For most assays, kinases were fused to T7 phage strains (Fabian, supra) and for the other assays, kinases were produced in HEK-293 cells after which they were tagged with DNA for quantitative PCR detection. […]
pIC50: −log10 of the molar value.
Readings of pIC50 for the listed compounds
experimental-readout: pIC50

>>> recorded_measurement("COc1cc(O)c2c(=O)c(O)c(-c3ccc(O)c(O)c3)oc2c1 [FBLGS-78]")
6.51
>>> recorded_measurement("COc1cc(-c2oc3cc(O)ccc3c(=O)c2O)ccc1O")
8.72
>>> recorded_measurement("O=C1CC(c2ccc(O)c(O)c2)Oc2cc(O)cc(O)c21 (stereo not shown)")
4.76
>>> recorded_measurement("O=c1cc(-c2ccc(O)c(O)c2)oc2cc(O)cc(O)c12")
5.88
>>> recorded_measurement("Cc1cc2oc(-c3cccc(N)c3)cc(=O)c2c([N+](=O)[O-])c1C")
6.06
>>> recorded_measurement("COc1cc(-c2cc(=O)c3c(O)c(OC)c(OC)cc3o2)ccc1O")
7.30
>>> recorded_measurement("O=c1cc(-c2ccccc2)oc2cc(O)cc(O)c12")
6.66
>>> recorded_measurement("O=c1c(O)c(-c2ccc(O)c(O)c2)oc2cc(O)cc(O)c12")
6.09
>>> recorded_measurement("O=c1c(O)c(-c2ccc(O)c(O)c2)oc2cc(O)ccc12")
6.24
>>> recorded_measurement("COc1ccc(C2CC(=O)c3c(O)cc(O)cc3O2)cc1O (stereo not shown)")
4.78

----------
- System: MOLT-4 (Leukemia)
- method: WST-1 anticancer cell proliferation assay, MOLT-4
- Format: cell-based
- condition: 72 hours
experimental-readout: IC50 (µM)

>>> recorded_measurement("COc1cc(-c2cc(=O)c3c(O)cc(O)c(CC=C(C)C)c3o2)ccc1O [FBL-03G]")
20
>>> recorded_measurement("COc1cc(-c2cc(=O)c3c(O)c(CC=C(C)C)c(O)cc3o2)ccc1O [FBL-03B]")
13.2

----------
- assay-system: FMS/CSF1R (Homo sapiens)
- Construct: made in house
- method: Kinase competition binding assay, FMS/CSF1R
- condition: Table 1 kinase panel
experimental-readout: IC50

>>> recorded_measurement("COc1cc(-c2cc(=O)c3c(O)c(C/C=C(\\C)CCC=C(C)C)c(O)cc3o2)ccc1O [FBL-03A]")
"1500 nM"
>>> recorded_measurement("COc1cc(-c2cc(=O)c3c(O)c(CC=C(C)C)c(O)cc3o2)ccc1O [FBL-03B]")
"199 nM"
>>> recorded_measurement("COc1cc(-c2cc(=O)c3c(O)cc(O)c(C/C=C(\\C)CCC=C(C)C)c3o2)ccc1O [FBL-03C]")
"1200 nM"
>>> recorded_measurement("COc1cc(-c2cc(=O)c3c(O)cc(O)c(CC=C(C)C)c3o2)ccc1O [FBL-03G]")
"4 nM"
>>> recorded_measurement("COc1ccc(-c2cc(=O)c3c(O)c(C/C=C(\\C)CCC=C(C)C)c(O)cc3o2)cc1OC [FBL-03D]")
"> 30000 nM"

----------
- assay-system: Aurora A (Homo sapiens, UniProt O14965)
- Construct: made in house
- Sequence (O14965 whole entry): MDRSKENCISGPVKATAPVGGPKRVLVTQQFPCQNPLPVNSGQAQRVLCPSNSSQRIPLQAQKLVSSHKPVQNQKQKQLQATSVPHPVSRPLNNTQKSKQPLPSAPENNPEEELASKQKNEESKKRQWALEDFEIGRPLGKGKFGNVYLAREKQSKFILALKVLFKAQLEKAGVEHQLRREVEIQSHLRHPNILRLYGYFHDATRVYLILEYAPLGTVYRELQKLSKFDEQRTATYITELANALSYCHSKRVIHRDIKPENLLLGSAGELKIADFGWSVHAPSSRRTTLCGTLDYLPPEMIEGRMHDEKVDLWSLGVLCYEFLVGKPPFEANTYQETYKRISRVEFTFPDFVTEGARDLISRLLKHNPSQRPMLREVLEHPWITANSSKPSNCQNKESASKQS
- method: Kinase competition binding assay, Aurora A
- condition: Table 1 kinase panel
Readings of IC50 for the listed molecules
experimental-readout: IC50 (nM)

>>> recorded_measurement("COc1cc(-c2cc(=O)c3c(O)cc(O)c(CC=C(C)C)c3o2)ccc1O [FBL-03G]")
1090
>>> recorded_measurement("COc1cc(-c2cc(=O)c3c(O)c(CC=C(C)C)c(O)cc3o2)ccc1O [FBL-03B]")
12
>>> recorded_measurement("COc1cc(-c2cc(=O)c3c(O)c(C/C=C(\\C)CCC=C(C)C)c(O)cc3o2)ccc1O [FBL-03A]")
730

----------
- System: HeLa (cervical)
- method: WST-1 anticancer cell proliferation assay, HeLa
- Assay type: cell-based
- condition: 72 hours
experimental-readout: IC50 (µM)

>>> recorded_measurement("COc1cc(-c2cc(=O)c3c(O)cc(O)c(CC=C(C)C)c3o2)ccc1O [FBL-03G]")
2.53
>>> recorded_measurement("COc1cc(-c2cc(=O)c3c(O)c(CC=C(C)C)c(O)cc3o2)ccc1O [FBL-03B]")
10.4

----------
- assay-system: EPHB6 (Homo sapiens, UniProt O15197)
- Construct: made in house
- Sequence (O15197 32-1021): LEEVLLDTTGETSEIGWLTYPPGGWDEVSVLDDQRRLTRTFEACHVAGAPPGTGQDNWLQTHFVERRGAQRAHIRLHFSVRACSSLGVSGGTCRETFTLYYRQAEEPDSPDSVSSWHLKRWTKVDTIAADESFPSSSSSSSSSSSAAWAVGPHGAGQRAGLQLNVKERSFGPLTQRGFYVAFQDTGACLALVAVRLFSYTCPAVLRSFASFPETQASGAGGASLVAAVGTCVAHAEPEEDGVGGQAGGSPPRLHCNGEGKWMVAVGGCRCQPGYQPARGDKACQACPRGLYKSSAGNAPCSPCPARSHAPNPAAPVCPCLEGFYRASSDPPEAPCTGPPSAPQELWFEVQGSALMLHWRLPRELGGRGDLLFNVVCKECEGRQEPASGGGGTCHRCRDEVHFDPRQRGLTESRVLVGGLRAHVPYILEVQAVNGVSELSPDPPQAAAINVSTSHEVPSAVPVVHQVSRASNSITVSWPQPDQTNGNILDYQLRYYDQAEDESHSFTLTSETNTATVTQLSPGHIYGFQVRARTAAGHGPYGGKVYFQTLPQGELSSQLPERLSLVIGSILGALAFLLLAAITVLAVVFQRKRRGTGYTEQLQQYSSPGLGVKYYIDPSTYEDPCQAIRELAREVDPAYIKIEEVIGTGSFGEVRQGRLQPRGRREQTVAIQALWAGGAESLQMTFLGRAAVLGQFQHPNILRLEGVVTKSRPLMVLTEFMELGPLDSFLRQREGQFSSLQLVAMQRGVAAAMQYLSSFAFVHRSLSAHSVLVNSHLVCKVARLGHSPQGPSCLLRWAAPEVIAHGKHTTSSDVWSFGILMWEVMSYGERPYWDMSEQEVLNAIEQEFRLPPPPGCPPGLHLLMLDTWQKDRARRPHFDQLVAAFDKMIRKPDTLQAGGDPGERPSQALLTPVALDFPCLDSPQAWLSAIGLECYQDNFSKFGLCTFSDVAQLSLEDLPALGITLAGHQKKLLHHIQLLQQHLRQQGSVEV
- method: Kinase competition binding assay, EPHB6
- condition: Table 1 kinase panel
experimental-readout: IC50

>>> recorded_measurement("COc1ccc(-c2cc(=O)c3c(O)c(C/C=C(\\C)CCC=C(C)C)c(O)cc3o2)cc1OC [FBL-03D]")
"> 30000 nM"
>>> recorded_measurement("COc1cc(-c2cc(=O)c3c(O)cc(O)c(CC=C(C)C)c3o2)ccc1O [FBL-03G]")
"> 1000 nM"
>>> recorded_measurement("COc1cc(-c2cc(=O)c3c(O)cc(O)c(C/C=C(\\C)CCC=C(C)C)c3o2)ccc1O [FBL-03C]")
"270 nM"
>>> recorded_measurement("COc1cc(-c2cc(=O)c3c(O)c(C/C=C(\\C)CCC=C(C)C)c(O)cc3o2)ccc1O [FBL-03A]")
"> 20000 nM"
>>> recorded_measurement("COc1cc(-c2cc(=O)c3c(O)c(CC=C(C)C)c(O)cc3o2)ccc1O [FBL-03B]")
"> 1000 nM"
